- Tested on: Tov-21-G
- Measurement Notes: Primary qHTS to identify gynecologic anti-cancer compounds using libraries of approved drugs and bioactive compounds (AID 1345084); also: nearly all actives have a fitted effect of over 55% in size
- Experimental Conditions: Gynecologic cancer cell panel viability, ATPlite luminescence, 48 h; series mostly up to 57.5 µM
Inconclusive results are not listed. Calls of active or inactive are those of the source. Calls follow the shape of the dose curve; as a rule, active = well fitted cell-killing curve with a large enough effect; inconclusive = small, poorly fitted or top-dose-only effect, or effect the other way; inactive = flat fitted curve, though single readings scatter.
Measurement Kind: outcome

For orientation, consider the following solved cases.
>>> result("O=C(NCc1ccc(F)cc1)C(=O)c1c[nH]c2ccccc12")
"inactive"
>>> result("C/C1=C\\CC[C@H](C)CCO[C@@H]2O[C@H](CO[C@@H]3OC[C@](O)(COC1=O)[C@H]3O)[C@@H](O)[C@H](O)[C@H]2O")
"inactive"
>>> result("C=CC1(C)C=C2C(=O)OC(=O)C3=C(CCCC3(C)C)C2(O)CC1 (stereo not drawn)")
"inactive"
>>> result("Cc1cccc(C)c1OCc1cc(C(=O)N2CCC(c3ccncc3)CC2)no1")
"inactive"

Shift focus to the following entry.
# outcome of COc1c2cc(c(O)c1OC)-c1cc(ccc1O)CCC(O)CCCC2 (stereo not drawn) = inactive
